# IC50 listing for each entry below
- Target Of Assay: MMP-1 (Homo sapiens, UniProt P03956)
- Sequence (P03956 100-469): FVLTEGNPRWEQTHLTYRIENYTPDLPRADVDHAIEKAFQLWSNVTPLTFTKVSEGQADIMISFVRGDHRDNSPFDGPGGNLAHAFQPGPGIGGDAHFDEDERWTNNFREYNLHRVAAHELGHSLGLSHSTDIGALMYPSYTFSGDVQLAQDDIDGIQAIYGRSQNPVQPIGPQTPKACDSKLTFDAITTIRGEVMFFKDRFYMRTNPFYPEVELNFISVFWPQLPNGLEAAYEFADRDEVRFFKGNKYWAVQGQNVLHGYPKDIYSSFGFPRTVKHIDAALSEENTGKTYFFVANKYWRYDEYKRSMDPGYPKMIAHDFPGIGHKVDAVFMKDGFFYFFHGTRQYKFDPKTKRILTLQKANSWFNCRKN
- Test Method Notes: MMP-1 inhibitory action (Type I collagen Activity Measurement kit, FITC-labeled collagen type I)
- Format: biochemical
- Condition: Experimental Example 2; read-out: IC50 MMP1

Use the examples below as a reference point.
[[record]]
compound = "CC1[C@H](c2ccccc2)[C@]1(NS(=O)(=O)c1ccc(-c2ccc(Cl)c(CO)c2)s1)C(=O)O (some centres unmarked)"
readout = "IC50"
result = "< 1000 nM"

[[record]]
compound = "CC1CCC(N2CCN(S(=O)(=O)N[C@@]3(C(=O)O)C(C)[C@@H]3c3ccccc3)CC2)CC1 (some centres unmarked)"
readout = "IC50"
result = "≥ 10000 nM"

[[record]]
compound = "C[C@]1(c2ccc(Cl)cc2)C[C@@]1(NS(=O)(=O)c1ccc(-c2cc(C(F)(F)F)on2)s1)C(=O)O"
readout = "IC50"
result = "< 1000 nM"

[[record]]
compound = "CC1(c2ccc(F)cc2)CC1(NS(=O)(=O)c1ccc(-c2cc(C(F)(F)F)on2)s1)C(=O)O (centres unmarked) [Example 2-340]"
readout = "IC50"
result = "≥ 10000 nM"

[[record]]
compound = "CC(C)S(=O)(=O)CC1(c2ccccc2)CC1(NS(=O)(=O)c1ccc(-c2ccc(Cl)cc2)s1)C(=O)O (centres unmarked)"
readout = "IC50"
result = "≥ 10000 nM"

[[record]]
compound = "CC(C)CCN1CCN(S(=O)(=O)N[C@@]2(C(=O)O)C(C)[C@@H]2c2ccccc2)CC1 (some centres unmarked)"
readout = "IC50"
result = "≥ 1000 nM"


Which IC50 value belongs to CN(C)C(=O)NCC1(c2ccccc2)CC1(NS(=O)(=O)c1ccc(-c2ccc(Cl)cc2)s1)C(=O)O (centres unmarked) ?
≥ 1000 nM

Which IC50 value belongs to CC1[C@H](c2ccccc2)[C@]1(NS(=O)(=O)N1CCC(Oc2cccc(Cl)c2)C1)C(=O)O (some centres unmarked) ?
≥ 1000 nM

Which IC50 value belongs to CCOC(=O)c1cnn(-c2ccc(S(=O)(=O)N[C@@]3(C(=O)O)C(C)[C@@H]3c3ccccc3)s2)c1 (some centres unmarked) ?
≥ 1000 nM

Which IC50 value belongs to O=C(CCO)NCC1(c2ccccc2)CC1(NS(=O)(=O)c1ccc(-c2ccc(Cl)cc2)s1)C(=O)O (centres unmarked) ?
≥ 10000 nM

Which IC50 value belongs to CCC1C(c2ccccc2)C1(NS(=O)(=O)c1ccc(-c2cc(C(F)(F)F)on2)s1)C(=O)O (centres unmarked) ?
< 100 nM
